Exercise: for every item that follows, state its recorded growth.
Tested on: U251 CNS
Test: NCI-60 one-dose screen, 48 h (100 = growth as untreated, 0 = no growth, -100 = all killed)
Conditions: 10 µM unless noted
Protocol: Growth inhibition of the U251 human tumor cell line is measured as a screen for anti-cancer activity. Cells are grown in 96 well plates and exposed to the test compound for 48 hours. Compounds are tested at a single concentration, which is 10^-5 M for most compounds. The reported endpoint is percent growth (GI% or GIPRCNT), where numbers from 0 - 100% represent growth inhibition, and numbers from -100% - 0 represent cell death. For example, a value of 40 represents 60% growth inhibition. […]
About 83,000 compounds went through this panel and 20% of them were active in at least one assay; those are over-represented in the sample as a whole. The source made the active and inactive calls. How the source made its calls: active means growth percent below 10; inactive means the rest.

-- ask Give U251 CNS growth for the following compound: Cc1ccc(Cc2cnc(NC(=O)c3cc(Br)cs3)s2)cc1
-- reply 46.9% (inactive)

-- ask Give U251 CNS growth for the following compound: CN[C@]12CC3(C=CC(=O)C=C3)O[C@@]1(Cc1ccc(OC)cc1)N(C)C(=O)N2
-- reply 10.9% (inactive)

-- ask Give U251 CNS growth for the following compound: C#Cc1cccc(Nc2ncnc3ccc(-c4cncc(NS(C)(=O)=O)c4)cc23)c1
-- reply 4.32% (active)

-- ask Give U251 CNS growth for the following compound: CC/C(=C(/c1ccc(Cl)cc1)c1ccc(OCCN2CCCC2)cc1)c1ccc(OC)cc1
-- reply 45.3% (inactive)

-- ask Give U251 CNS growth for the following compound: CCN(CC)c1nc(SCc2ccccc2Cl)ncc1C
-- reply 92.6% (inactive)

-- ask Give U251 CNS growth for the following compound: Oc1c(Cl)cc(Cl)cc1/C=N/Nc1nnc(N/N=C/c2cc(Cl)cc(Cl)c2O)c2ccccc12
-- reply 21% (inactive)

-- ask Give U251 CNS growth for the following compound: O=C(Nc1cc(Cl)ccc1O)c1ccc(Nc2ccnc(C(F)(F)F)c2)cc1
-- reply 31.7% (inactive)

-- ask Give U251 CNS growth for the following compound: N#Cc1c(-c2ccc(Cl)cc2)nc(NN=Cc2cccc(O)c2)nc1N1CCOCC1
-- reply 61.6% (inactive)

-- ask Give U251 CNS growth for the following compound: NC(=O)CCC(C(=O)O)N1C(=O)c2ccc(O)cc2C1=O (stereo not given)
-- reply 100% (inactive)

-- ask Give U251 CNS growth for the following compound: O=S(=O)(NCCNc1nccc(-c2c(-c3cccc(F)c3)nc3occn23)n1)c1ccc(Br)cc1
-- reply 85.5% (inactive)

-- ask Give U251 CNS growth for the following compound: O=C(c1ccccc1)C1C(=O)N2C(=S)N(c3ccccc3)C(=O)C2C1c1ccc(Cl)cc1 (stereo not given)
-- reply 98.4% (inactive)

-- ask Give U251 CNS growth for the following compound: Cc1cc(N)c2cc(NC(=O)/C=C\c3ccccc3Cl)ccc2n1
-- reply -85.9% (active)

-- ask Give U251 CNS growth for the following compound: CC1(C)CC2=C3C=C[C@@H]4[C@@]5(C)CCC(=O)C(C)(C)[C@@H]5CC[C@@]4(C)[C@]3(C)CC[C@@]2(C(=O)O)CC1=O
-- reply 61.2% (inactive)

-- ask Give U251 CNS growth for the following compound: C=C1CC[C@@H]2[C@](C)(COC(C)=O)[C@H](OC(C)=O)CC[C@@]2(C)[C@@H]1CC(Sc1ccccc1)C1=CCOC1=O (stereo not given in full)
-- reply 22.9% (inactive)

-- ask Give U251 CNS growth for the following compound: Cc1nnc(NC(=O)c2nc(S(=O)(=O)Cc3ccc(F)cc3)ncc2Cl)s1
-- reply 62.2% (inactive)

-- ask Give U251 CNS growth for the following compound: CCN(CC)CCCN1C(=O)c2c(c(C)c3c(oc4cc(O)ccc43)c2C)C1=O
-- reply -88.8% (active)

-- ask Give U251 CNS growth for the following compound: N#Cc1nn(-c2cc(=O)[nH]c3ccc(Cl)cc23)c(N)c1C#N
-- reply 103% (inactive)

-- ask Give U251 CNS growth for the following compound: COc1cccc(/C=C/C(=O)c2cc3c(N)c(C(=O)Nc4ccccc4)sc3nc2C)c1
-- reply -52.9% (active)

-- ask Give U251 CNS growth for the following compound: N#Cc1nc(-c2ccccc2)oc1S(=O)(=O)N1CCOCC1
-- reply 93.7% (inactive)

-- ask Give U251 CNS growth for the following compound: COc1ccc(-c2nc(/C=C3\SC(=NCc4ccccc4)NC3=O)c3ccccn23)cc1
-- reply -43.6% (active)

-- ask Give U251 CNS growth for the following compound: CN(C)C1CCN(Cc2ccc(NC(=O)c3cncc(C#Cc4cnc(N)c5ncccc45)c3)cc2C(F)(F)F)CC1
-- reply -51.5% (active)

-- ask Give U251 CNS growth for the following compound: O=C1/C(=C/c2ccc(Cl)c(Cl)c2)CN(C(=O)C(Cl)Cl)C/C1=C\c1ccc(Cl)c(Cl)c1
-- reply -92.4% (active)

-- ask Give U251 CNS growth for the following compound: N=C(N)c1ccc(-c2ccc(-c3cc(Cl)cc(Cl)c3)o2)o1
-- reply -89.9% (active)

-- ask Give U251 CNS growth for the following compound: CC(C)N1CCN(Cc2ccc3c(NNC(=O)c4ccccc4)nc4cc(F)ccc4n23)CC1
-- reply 17% (inactive)

-- ask Give U251 CNS growth for the following compound: CCc1ccc(Oc2cn[nH]c2-c2ccc(OCCc3ccc(F)cc3)cc2O)cc1
-- reply 53.5% (inactive)

-- ask Give U251 CNS growth for the following compound: CC1(C)CC[C@]2(c3nnc(-c4ccncc4)o3)CC[C@H]3C(=CC[C@H]4[C@@]3(C)CC[C@H]3C(C)(C)C(=O)CC[C@]43C)[C@@H]2C1
-- reply 62.4% (inactive)

-- ask Give U251 CNS growth for the following compound: CNC(=O)c1cc(Oc2ccc3c(c2)sc2nc(-c4cc(OC)c(OC)c(OC)c4)cn23)ccn1
-- reply 61.9% (inactive)

-- ask Give U251 CNS growth for the following compound: CCOc1nc(-c2ccccc2)cc2c(O)c(C(=O)NN)[nH]c(=O)c12
-- reply 106% (inactive)

-- ask Give U251 CNS growth for the following compound: COc1cc(CNS(=O)(=O)c2ccc(C)cc2)ccc1OCc1cn(-c2ccc(F)cc2)nn1
-- reply 97.3% (inactive)

-- ask Give U251 CNS growth for the following compound: CCOC(=O)c1ccc2[nH]c(O)c(C(=Nc3ccc(N(C)C(=O)CN4CCN(C)CC4)cc3)c3ccccc3)c2c1
-- reply -86.4% (active)
